Tested System: α-glucosidase (EC 3.2.1.20)
Run Conditions: read-out: IC50, α-glucosidase-inhibitory activity
I'd be grateful if you could share measured pIC50 for these entries.
Give bare numbers, as −log10 of the molar value.

[[record]]
molecule = "CC(=O)O[C@@H]1CC[C@@]2(C)[C@@H](CC[C@]3(C)[C@@H]2C(=O)C=C2[C@@H]4[C@@H](C)[C@H](C)CC[C@]4(C)CC[C@]23C)[C@@]1(C)C(=O)OCn1cc(-c2ccc(Cl)cc2)nn1 [6i]"
tested_system = "α-glucosidase (EC 3.2.1.20)"
value_measured = 5.51


Batch of 2 molecules: report pIC50 for each.
1. CC(=O)OC1CCC2(C)C(CCC3(C)C2C(=O)C=C2C4C(C)C(C)CCC4(C)CCC23C)C1(C)C(=O)OCn1cc(-c2ccccc2)nn1 (stereo not shown)
2. Cc1ccccc1-c1cn(COC(=O)C2(C)C(O)CCC3(C)C2CCC2(C)C3C(=O)C=C3C4C(C)C(C)CCC4(C)CCC32C)nn1 (stereo not shown)

**Result**
1: 5.69; 2: 5.68

**Query** Recorded pIC50 for COc1ccccc1-c1cn(COC(=O)C2(C)C(OC(C)=O)CCC3(C)C2CCC2(C)C3C(=O)C=C3C4C(C)C(C)CCC4(C)CCC32C)nn1 (stereo not shown) with α-glucosidase (EC 3.2.1.20), please?
**Result** 5.91

====

Tested System: α-glucosidase (EC 3.2.1.20)
Run Conditions: read-out: IC50, α-glucosidase-inhibitory activity
Field: class. Source value: IC50. Ranges: bottom bin: < 1000 nM; middle bin: ≥ 1000 nM and < 2000 nM; top bin: ≥ 2000 nM

Worked examples, 2 compounds total:
[[record]]
compound = "CC(=O)O[C@@H]1CC[C@@]2(C)[C@@H](CC[C@]3(C)[C@@H]2C(=O)C=C2[C@@H]4[C@@H](C)[C@H](C)CC[C@]4(C)CC[C@]23C)[C@@]1(C)C(=O)OCn1cc(-c2ccccc2C(F)(F)F)nn1 [6d]"
tested_system = "α-glucosidase (EC 3.2.1.20)"
class = "top bin"

[[record]]
compound = "C[C@H]1[C@H](C)CC[C@]2(C)CC[C@]3(C)C(=CC(=O)[C@@H]4[C@@]5(C)CC[C@@H](O)[C@](C)(C(=O)OCn6cc(-c7ccc(Br)cc7)nn6)[C@@H]5CC[C@]43C)[C@H]12"
tested_system = "α-glucosidase (EC 3.2.1.20)"
class = "bottom bin"


**Query** Hi, small favor: classify CC(=O)O[C@@H]1CC[C@@]2(C)[C@@H](CC[C@]3(C)[C@@H]2C(=O)C=C2[C@@H]4[C@@H](C)[C@H](C)CC[C@]4(C)CC[C@]23C)[C@@]1(C)C(=O)OCn1cc(-c2ccc(C(F)(F)F)cc2)nn1 [7k] by its IC50 when you get a moment.
**Result** middle bin

**Query** Query CC(=O)O[C@@H]1CC[C@@]2(C)[C@@H](CC[C@]3(C)[C@@H]2C(=O)C=C2[C@@H]4[C@@H](C)[C@H](C)CC[C@]4(C)CC[C@]23C)[C@@]1(C)C(=O)OCn1cc(-c2cccc(Br)c2)nn1 next
**Result** bottom bin

**Query** Queued: C#CCOC(=O)[C@]1(C)C2CC[C@]3(C)C(C(=O)C=C4[C@@H]5[C@@H](C)[C@H](C)CC[C@]5(C)CC[C@]43C)[C@@]2(C)CC[C@H]1OC(C)=O (some centres unmarked)
**Result** top bin

**Query** Another: CC(=O)OC1CCC2(C)C(CCC3(C)C2C(=O)C=C2C4C(C)C(C)CCC4(C)CCC23C)C1(C)C(=O)OCn1cc(-c2cccc(C(F)(F)F)c2)nn1 (centres unmarked)
**Result** bottom bin

**Query** What about CC(=O)O[C@@H]1CC[C@@]2(C)[C@@H](CC[C@]3(C)[C@@H]2C(=O)C=C2[C@@H]4[C@@H](C)[C@H](C)CC[C@]4(C)CC[C@]23C)[C@@]1(C)C(=O)OCn1cc(-c2ccccc2C(F)(F)F)nn1 [7d] ?
**Result** top bin

**Query** Next compound up: CC(=O)O[C@@H]1CC[C@@]2(C)[C@@H](CC[C@]3(C)[C@@H]2C(=O)C=C2[C@@H]4[C@@H](C)[C@H](C)CC[C@]4(C)CC[C@]23C)[C@@]1(C)C(=O)OCn1cc(-c2ccc(C(F)(F)F)cc2)nn1 [6k]
**Result** middle bin

**Query** Also CC(=O)O[C@@H]1CC[C@@]2(C)[C@@H](CC[C@]3(C)[C@@H]2C(=O)C=C2[C@@H]4[C@@H](C)[C@H](C)CC[C@]4(C)CC[C@]23C)[C@@]1(C)C(=O)OCn1cc(-c2ccc(F)cc2)nn1 [6j] ?
**Result** bottom bin

**Query** Another compound: CC(=O)O[C@@H]1CC[C@@]2(C)[C@@H](CC[C@]3(C)[C@@H]2C(=O)C=C2[C@@H]4[C@@H](C)[C@H](C)CC[C@]4(C)CC[C@]23C)[C@@]1(C)C(=O)OCn1cc(-c2ccc(Cl)cc2)nn1 [7i]
**Result** top bin

**Query** Next: C#CCOC(=O)C1(C)C(O)CCC2(C)C1CCC1(C)C2C(=O)C=C2C3C(C)C(C)CCC3(C)CCC21C (centres unmarked)
**Result** top bin

**Query** One more compound: C[C@H]1[C@H](C)CC[C@]2(C)CC[C@]3(C)C(=CC(=O)[C@@H]4[C@@]5(C)CC[C@@H](O)[C@](C)(C(=O)OCn6cc(-c7cccc(Br)c7)nn6)[C@@H]5CC[C@]43C)[C@H]12
**Result** middle bin

**Query** Also CC1CCC2(C)CCC3(C)C(=CC(=O)C4C5(C)CCC(O)C(C)(C(=O)OCn6cc(-c7cccc(C(F)(F)F)c7)nn6)C5CCC43C)C2C1C (centres unmarked) ?
**Result** top bin
